Just for reference, patent US20240216413A1 is where these values come from.

# protocol.description: Cytotoxicity in Huh7 cells
# Type: cell-based
# test.parameters: human
assay.metric: CC50

| compound | assay.metric | recorded.result |
| --- | --- | --- |
| CC(C)OC(=O)[C@H](C)N[P@](=O)(OC[C@H]1S[C@@H](n2ccc(N)nc2=O)[C@H](O)[C@@H]1O)Oc1ccccc1 [Compound 16] | CC50 | > 100 µM |
| CCC(CC)COC(=O)[C@H](C)N[P@](=O)(OC[C@H]1O[C@@](C#N)(c2ccc3c(N)ncnn23)[C@H](O)[C@@H]1O)Oc1ccccc1 [Remdesivir, reference compound] | CC50 | 1.5 µM |
| Nc1ccn([C@@H]2S[C@H](CO)[C@@H](O)[C@H]2O)c(=O)n1 [Compound 9] | CC50 | 93.1 µM |
| O=c1ccn([C@@H]2S[C@H](CO)[C@@H](O)[C@H]2O)c(=O)[nH]1 [Compound 8] | CC50 | > 100 µM |
| CC(C)OC(=O)[C@H](C)N[P@](=O)(OC[C@H]1S[C@@H](n2ccc(=O)[nH]c2=O)[C@H](O)[C@@H]1O)Oc1ccccc1 [Compound 13] | CC50 | > 100 µM |
| O=c1nc(NO)ccn1[C@@H]1S[C@H](CO)C(O)C1O (stereo in doubt) [Compound 17] | CC50 | > 100 µM |
